Each record here notes measured fold over control (gMFI).
Test System: T1, human TNFR14 (human, UniProt Q92956 39-283)
T1 construct: whole, on cells
T1 sequence (looked up): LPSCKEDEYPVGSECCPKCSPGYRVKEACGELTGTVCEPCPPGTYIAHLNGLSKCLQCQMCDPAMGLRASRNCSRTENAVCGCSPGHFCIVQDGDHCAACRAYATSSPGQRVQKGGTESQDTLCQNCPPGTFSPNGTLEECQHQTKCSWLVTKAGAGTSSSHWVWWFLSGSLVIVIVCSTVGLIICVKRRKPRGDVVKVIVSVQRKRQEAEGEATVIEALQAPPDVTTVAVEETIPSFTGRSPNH
Experiment: flow cytometry, HEK293 transfectants vs control cells
Your answer should be a plain number; it is taken to be in fold.

The cases that follow already have their fold over control (gMFI) on record.
36F3 (antibody, IgG4, V domains shown, also called 4891-1) VH: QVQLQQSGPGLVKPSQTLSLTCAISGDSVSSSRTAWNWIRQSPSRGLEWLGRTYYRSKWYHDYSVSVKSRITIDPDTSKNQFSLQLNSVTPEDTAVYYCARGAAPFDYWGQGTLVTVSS VL: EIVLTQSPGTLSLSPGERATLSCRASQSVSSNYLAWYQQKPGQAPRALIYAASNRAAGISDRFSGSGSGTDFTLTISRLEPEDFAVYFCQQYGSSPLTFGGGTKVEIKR = 0.88
33H6 (antibody, IgG4, V domains shown, also called 4883-1) VH: QVQLVQSGAEVKKPGASVKVSCKASGYTFPGYYMYWLRQAPGQGLEWMGWINPDSGDTNYAQKFQGRVTMTRDTSISTAFMELSRLRSDDTAVYYCAREKPRYFDSFYYYLMDVWGQGTTVTVSS VL: DIQMTQSPSSLSASVGDRVTITCRAGQNISRHLNWYQQNPGKAPKVLIHPASSLPSGVPSRFSGSGSGTDFSLTISSLQPEDFGTYFCQQSYSTPPTFGGGTKVELKR = 0.8

Here's the next entry for you.
What fold over control (gMFI) value was documented for this binder, 37A6 (antibody, IgG4, V domains shown, also called 4865-1) VH: QVQLVESGGGLVKPGGSLRLSCAASEFTFSDYYMSWIRQAPGKGLEWVSYISRSGDTIYYADSVKGRFTISRDNAKNSLYLQMNGLRAEDTAVYYCARDLAAGATGGLDCWGQGTLVTVSS VL: SYELTQPPSVSVSPGQTASITCSGERLGNKYICWYQQKPGQSPVLVIYQDFKRPSGIPERFSGSNSGITATLTISGTQAMDEADYYCQAWDSRTVVFGGGTKLTVLG ?
0.87
